For each record, write down the corresponding pEC50.
Molecular target: human A2a receptor (Homo sapiens, UniProt P29274)
Sequence (P29274 whole entry): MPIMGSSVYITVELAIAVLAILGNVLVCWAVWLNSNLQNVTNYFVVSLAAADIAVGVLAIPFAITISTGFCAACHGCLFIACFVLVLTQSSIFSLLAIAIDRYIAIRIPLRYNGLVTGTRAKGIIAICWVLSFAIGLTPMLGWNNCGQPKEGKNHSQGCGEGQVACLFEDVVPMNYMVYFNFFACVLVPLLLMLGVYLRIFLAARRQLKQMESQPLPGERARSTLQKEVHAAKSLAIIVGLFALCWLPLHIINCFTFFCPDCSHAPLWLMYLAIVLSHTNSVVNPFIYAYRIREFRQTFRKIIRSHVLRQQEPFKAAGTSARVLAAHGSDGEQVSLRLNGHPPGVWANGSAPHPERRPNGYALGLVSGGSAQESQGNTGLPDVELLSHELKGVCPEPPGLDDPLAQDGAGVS
Assay: A2a receptor competition binding assay using Scintillation Proximity technology
Details: membranes from HEK293 cells expressing human A2a receptor; 0.5 nM tritiated radioligand; SPA beads; 1 h room temperature
By convention, pEC50 is the negative base-10 log of a molar concentration.

Data request: Entry COc1cccc2c1nc(N)n1nc(CCCN3Cc4ccc(F)cc4C3)nc21 [Ex-229] needs its pEC50 filled in; supply it.
Data returned: 7.83

Data request: Entry COc1cccc2c1nc(N)n1nc(CCN3Cc4ccccc4C3)nc21 [Ex-24] needs its pEC50 filled in; supply it.
Data returned: 7.95

Data request: Entry COc1cccc2c1nc(N)n1nc(CCN3CCCCc4cccnc43)nc21 [Ex-20] needs its pEC50 filled in; supply it.
Data returned: 7.89

Data request: Entry CCc1nnc2n1CCN(CCc1nc3c4cccc(OC)c4nc(N)n3n1)C2 [Ex-22] needs its pEC50 filled in; supply it.
Data returned: 8.17
